Target: AKAP18δ-PLB interaction (UniProt P26678+Q6JP77)
Sequence (Q6JP77 whole entry): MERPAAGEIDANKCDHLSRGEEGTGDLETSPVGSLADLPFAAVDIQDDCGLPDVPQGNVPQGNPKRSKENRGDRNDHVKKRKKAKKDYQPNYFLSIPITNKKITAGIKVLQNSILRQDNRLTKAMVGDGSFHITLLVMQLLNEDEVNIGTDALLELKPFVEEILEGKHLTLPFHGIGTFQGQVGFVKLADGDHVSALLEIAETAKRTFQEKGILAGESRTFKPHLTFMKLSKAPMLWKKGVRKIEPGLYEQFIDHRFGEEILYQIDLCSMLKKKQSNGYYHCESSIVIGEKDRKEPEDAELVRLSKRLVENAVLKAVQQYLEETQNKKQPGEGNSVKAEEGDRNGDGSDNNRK
Sequence (P26678 whole entry): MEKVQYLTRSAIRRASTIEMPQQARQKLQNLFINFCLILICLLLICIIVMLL
Experiment: AlphaScreen binding assay of the GST-AKAP18δ : PLB-biotin interaction
Conditions: compound library screen; Table 1 compounds similar to those of formula (I); read-out: EC50
Response field label takes rule met when EC50 is strictly below 20 µM and rule not met in all other cases.

In the record for O=C(Nc1ccc(F)cc1)Nc1ccc(CN(Cc2ccccc2)Cc2ccc(NC(=O)Nc3ccc(F)cc3)cc2)cc1 , is EC50 less than 20 µM?
rule met

Decide: EC50 of Cc1ccc(CN(Cc2ccc(F)cc2)Cc2nc(C(=O)O)cs2)cc1 strictly below 20 µM?
rule not met

is_below(EC50, 20 µM) for Cc1ccc(CN(CCC(c2ccccc2)c2ccccc2)Cc2nc(C(=O)O)cs2)cc1 ?
rule not met

For O=C(O)c1csc(CN(CCC(c2ccccc2)c2ccccc2)Cc2ccc(F)cc2)n1 , is the recorded EC50 below the cut-off of 20 µM?
rule met

Dear colleague, could you confirm whether EC50 of O=C(O)c1csc(CN(Cc2ccc(F)cc2)Cc2ccc(Cl)cc2)n1 falls below 20 µM? Thanks.
rule not met

is_below(EC50, 20 µM) for Cc1ccc(NC(=O)Nc2ccc(CN(Cc3ccc(NC(=O)Nc4ccc(C)cc4)cc3)Cc3ccc(NC(=O)Nc4ccc(C)cc4)cc3)cc2)cc1 ?
rule met

Please let me know if O=C(Nc1ccccc1)Nc1ccc(CN(Cc2ccccc2)Cc2ccc(NC(=O)Nc3ccccc3)cc2)cc1 shows EC50 below 20 µM.
rule met

Strictly below 20 µM in EC50? Nc1ccc(CN(Cc2ccc(N)cc2)Cc2ccc(N)cc2)cc1
rule not met

Does this compound meet the criterion EC50 < 20 µM? O=[N+]([O-])c1ccc(CN(Cc2ccccc2)Cc2ccc([N+](=O)[O-])cc2)cc1
rule met

These data points were gathered from patent US9585880B2.
